target: HIV-1 Env of pseudovirus isolate MGRM-G-027 (subtype G) (HIV-1); assay: cell-based or functional assay
measurement.type: IC50
Dear colleague, please send the value followed by its unit.

Observe how each entry below is paired with its result.
binder	obs.value
PGT-123 (antibody, V domains shown) VH: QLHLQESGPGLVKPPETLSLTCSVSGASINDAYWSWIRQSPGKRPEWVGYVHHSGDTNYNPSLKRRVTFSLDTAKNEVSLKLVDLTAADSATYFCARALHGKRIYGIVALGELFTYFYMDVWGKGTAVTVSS VL: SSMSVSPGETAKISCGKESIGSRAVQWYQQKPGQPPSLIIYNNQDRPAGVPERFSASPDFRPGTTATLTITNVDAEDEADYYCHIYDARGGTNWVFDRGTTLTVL	0.182 µg/mL
PGT-137 (antibody, V domains shown) VH: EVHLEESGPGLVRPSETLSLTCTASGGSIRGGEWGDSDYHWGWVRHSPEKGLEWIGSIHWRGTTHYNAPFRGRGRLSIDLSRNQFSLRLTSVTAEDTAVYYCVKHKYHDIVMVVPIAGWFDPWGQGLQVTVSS VL: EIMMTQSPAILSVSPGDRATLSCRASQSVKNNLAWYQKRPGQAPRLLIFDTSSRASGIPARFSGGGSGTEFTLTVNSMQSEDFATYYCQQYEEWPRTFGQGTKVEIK	0.228 µg/mL

With those in mind, consider the next binder.
Exam item: What IC50 value was documented for this binder, PGT-131 (antibody, V domains shown) VH: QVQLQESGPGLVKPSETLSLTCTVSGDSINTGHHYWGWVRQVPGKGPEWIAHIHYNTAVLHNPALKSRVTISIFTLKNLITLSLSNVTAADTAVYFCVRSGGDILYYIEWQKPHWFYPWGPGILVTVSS VL: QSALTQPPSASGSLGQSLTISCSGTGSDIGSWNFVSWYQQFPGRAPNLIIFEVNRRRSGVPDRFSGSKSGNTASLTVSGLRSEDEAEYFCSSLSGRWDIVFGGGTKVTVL ?
Marked response: 2.9 µg/mL
